Test system: human telomerease (HL60 cell extract)
Assay: Antitelomerease activity: extension of oligonucleotide TS followed by PCR amplification, with HL60 extract
Type: biochemical
Settings: read-out: TRAP IC50
Protocol: The antitelomerease biological activity is determined by the following experimental protocol: The leukaemia line HL60 is obtained from ATCC (American Type Culture Collection, Rockville, USA). […] The samples are then analysed by electrophoresis on 12% acrylamide gel in a 1×TBE buffer for 1 hour at a voltage of 200 volts, with the aid of a Novex electrophoresis system. […] The analysis and the quantification of the reaction products are carried out with the aid of an InstantImager apparatus (Pacard). […]
Measurement kind: pIC50
// returns pIC50 (minus log10 of molar concentration), number only

Some solved entries appear below for comparison.
Cc1cc2c(Nc3nc(Nc4ccc5nc(C)cc(N)c5c4)nc(Nc4ccc5nc(C)cc(N)c5c4)n3)cccc2cn1 : 6.09
Cc1cc(N)c2cc(Nc3nc(Nc4ccc5nc(C)cc(N)c5c4)nc(Sc4ccccc4Cl)n3)ccc2n1 : 5.85
Cc1cc(N)c2cc(Nc3nc(NCc4cccc5ccccc45)nc(Nc4ccc5nc(C)cc(N)c5c4)n3)ccc2n1 : 5.82

Look up pIC50 for this compound: "Cc1cc(N)c2cc(Nc3nc(Nc4ccc5nc(C)cc(N)c5c4)nc(Oc4cccc5ccccc45)n3)ccc2n1"
6.43
